biological target: Pim2 kinase (Homo sapiens (Human), UniProt Q9P1W9)
Sequence (Q9P1W9 whole entry): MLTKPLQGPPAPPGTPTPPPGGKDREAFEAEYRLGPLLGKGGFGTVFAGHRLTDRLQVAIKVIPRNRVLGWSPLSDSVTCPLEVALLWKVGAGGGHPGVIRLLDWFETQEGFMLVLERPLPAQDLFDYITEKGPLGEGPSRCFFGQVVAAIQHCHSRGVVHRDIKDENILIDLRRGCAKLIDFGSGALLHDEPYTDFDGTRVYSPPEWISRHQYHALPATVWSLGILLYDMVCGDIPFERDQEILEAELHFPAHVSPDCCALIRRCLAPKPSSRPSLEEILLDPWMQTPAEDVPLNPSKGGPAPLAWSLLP
RESULT_TYPE: IC50 (nM)

Below: 4 compounds and their reported IC50.
                           structure_string  unit_descriptor  assay_value
0  N[C@@H]1C[C@@H](C(F)(F)F)CN(c2ccncc2NC(=O)c2csc(-c3c(F)cccc3F)n2)C1               nM           72
1  CCO[C@@H]1C[C@H](N)CN(c2ccncc2NC(=O)c2csc(-c3c(F)cccc3F)n2)C1               nM           85
2  C[C@@H]1C[C@H](O)C[C@H](c2ccncc2NC(=O)c2nc(-c3c(F)cccc3F)sc2N)C1               nM            5
3  C[C@@H]1C[C@H](N)C[C@H](c2ccncc2NC(=O)c2csc(C3CCCCC3)n2)C1               nM           97

[a] N[C@@H]1CN(c2ccncc2NC(=O)c2csc(-c3c(F)cccc3F)n2)CC(F)(F)C1
[b] N[C@@H]1CN(c2ccncc2NC(=O)c2csc(-c3c(F)cccc3F)n2)CC[C@H]1F
Which value of IC50 is numerically greater: that of a or that of b ? Respond using the label that marks the chosen record.
a
(a: 38 nM, b: 23 nM)

[P] C[C@H]1C[C@@H](c2ccncc2NC(=O)c2csc(-c3c(F)cccc3F)n2)C[C@@H](N)[C@@H]1O
[Q] N[C@H]1C[C@H](O)CN(c2ccncc2NC(=O)c2csc(-c3c(F)cccc3F)n2)C1
Which value of IC50 is smaller, the one for P or the one for Q ? Respond using the label that marks the chosen record.
P
